Biological target: Lysosomal acid glucosylceramidase (Homo sapiens)
Sequence (P04062 whole entry): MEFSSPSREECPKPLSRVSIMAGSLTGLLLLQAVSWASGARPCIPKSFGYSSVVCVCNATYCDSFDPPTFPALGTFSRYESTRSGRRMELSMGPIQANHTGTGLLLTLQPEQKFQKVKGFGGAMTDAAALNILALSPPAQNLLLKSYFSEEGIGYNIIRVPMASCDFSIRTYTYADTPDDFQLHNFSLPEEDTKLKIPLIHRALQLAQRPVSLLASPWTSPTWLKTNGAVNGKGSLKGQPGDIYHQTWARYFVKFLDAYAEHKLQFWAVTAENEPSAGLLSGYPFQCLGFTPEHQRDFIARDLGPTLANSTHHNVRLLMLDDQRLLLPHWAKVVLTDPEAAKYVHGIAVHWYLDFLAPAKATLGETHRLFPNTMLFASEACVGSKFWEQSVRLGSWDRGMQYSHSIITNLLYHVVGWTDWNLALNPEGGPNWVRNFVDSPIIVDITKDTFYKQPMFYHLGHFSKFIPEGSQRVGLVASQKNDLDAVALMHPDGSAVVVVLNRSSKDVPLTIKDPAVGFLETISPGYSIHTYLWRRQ
Assay: Inhibition of human recombinant beta-glucocerebrosidase assessed as 4-methyumbelliferone formation after 30 mins by spectrophotometric analysis at pH 5.2
REPORTED ENDPOINT: IC50 (nM)
Hi! Could you send only the number? It should be in nM, unit omitted.

{"CHEMICAL STRING": "CCCCCCCCCN[C@@H]1[C@H](O)[C@@H](O)[C@H](O)[C@@H](O)[C@@H]1NCCCCCCCCC.Cl.Cl", "TARGET UNDER TEST": "Lysosomal acid glucosylceramidase (Homo sapiens)", "READOUT UNITS": "nM", "IC50": 90}
{"CHEMICAL STRING": "CCCCCCCCCN1C(=O)N(CCCCCCCCC)[C@H]2[C@H](O)[C@@H](O)[C@H](O)[C@@H](O)[C@H]21", "TARGET UNDER TEST": "Lysosomal acid glucosylceramidase (Homo sapiens)", "READOUT UNITS": "nM", "IC50": 1610}
{"CHEMICAL STRING": "Cl.Cl.N[C@@H]1[C@H](N)[C@H](O)[C@@H](O)[C@H](O)[C@H]1O", "TARGET UNDER TEST": "Lysosomal acid glucosylceramidase (Homo sapiens)", "READOUT UNITS": "nM", "IC50": 53400}
{"CHEMICAL STRING": "CCCCCCCCCO[C@@H]1[C@H](O)[C@@H](O)[C@H](O)[C@@H](O)[C@@H]1OCCCCCCCCC", "TARGET UNDER TEST": "Lysosomal acid glucosylceramidase (Homo sapiens)", "READOUT UNITS": "nM", "IC50": 144000}

Now consider a different compound.
Sure, the documented IC50 for CCCCCCCCCN[C@@H]1[C@H](N)[C@H](O)[C@@H](O)[C@H](O)[C@H]1O.Cl.Cl is 640
